The measured values listed here are drawn from PubChem BioAssay AID602248.

Test: counter-screen for M1 agonists: effect in parental CHO-K1 cells (AID 602248);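 further: untransfected CHO-K1 host cells lacking M1 receptor as counterscreen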
Conditions: Fluo-8 calcium fluorescence, at 3 µM, scaled to maximal ATP response, vehicle zero
Among all 360,000 compounds or so, about 1,700 (0.47%) were called active. No stated cut-off is given here; in the data, active means activation above about 15%; inactive means the rest. The sample as a whole holds a higher share of actives than the screen did.
Possible outcomes: 1 (yes) (active), 0 (no) (inactive)

molecule: COc1cc(NC(=O)Nc2ccc(C)cc2)cc([N+](=O)[O-])c1
class.label: 1 (yes)
//
molecule: COc1ccc(OC)c(NC(=O)C2CCCN2S(=O)(=O)c2cccc3nsnc23)c1 (configuration not stated)
class.label: 0 (no)
//
molecule: CC(=O)NC(=S)Nc1ccc(NC(=S)NC(=O)c2ccc([N+](=O)[O-])cc2)cc1
class.label: 1 (yes)
//
molecule: Cc1nn(C(C)C(=O)N2CCOCC2)c(=O)c2nn(-c3ccccc3)c(C)c12 (configuration not stated)
class.label: 0 (no)
//
molecule: CNC[C@H]1OCc2cnnn2CCCC(=O)N([C@H](C)CO)C[C@@H]1C
class.label: 0 (no)
//
molecule: O=C(NCc1ccc2c(c1)OCO2)C(=O)NCC1OCCN1S(=O)(=O)c1ccc(F)cc1 (configuration not stated)
class.label: 0 (no)
//
molecule: COc1cccc(-c2ccc(C#N)c(SCC(=O)NCCc3ccc(Cl)cc3)n2)c1
class.label: 0 (no)
//
molecule: O=C(CN1C(=O)CSC1=O)N1CCCC(Nc2ccc(F)cc2)C1 (configuration not stated)
class.label: 0 (no)
//
molecule: O=C(Nc1ccccc1)c1ccc2nsnc2c1
class.label: 0 (no)
//
molecule: Cc1ccc(C)c(S(=O)(=O)N2CCN(CC(=O)Nc3ccc([N+](=O)[O-])cc3)CC2)c1
class.label: 0 (no)
//
molecule: COc1ccc(S(=O)(=O)NNC(=O)Nc2ccc(C)cc2)c(OC)c1
class.label: 0 (no)
//
molecule: Cc1ccc(S(=O)(=O)Nc2nc(CN3CCOCC3)nc3sc(C)c(C)c23)cc1
class.label: 0 (no)
//
molecule: COc1ccc(NC(=O)Nc2ccc3nsnc3c2)cc1
class.label: 1 (yes)
//
molecule: N#Cc1c(-c2ccccc2)c(-c2ccccc2)n[nH]c1=O
class.label: 0 (no)
//
molecule: CC1CCCCC12NC(=O)N(CC(=O)OCc1c(F)cccc1Cl)C2=O (configuration not stated)
class.label: 1 (yes)
//
molecule: Cc1ccc(S(=O)(=O)N2CCC3(CC2)OCCO3)c(C)c1
class.label: 0 (no)
//
molecule: CCn1c(SCC(=O)Nc2ccccc2F)nc2c(c1=O)SC(C)C2 (configuration not stated)
class.label: 0 (no)
//
molecule: OCC[C@H]1C[C@H](O)[C@@H](O)[C@]2(Cc3ccccc3CO2)O1
class.label: 0 (no)
//
molecule: CCOC(=O)C1CCN(Cc2ccc(-c3ccccc3)cc2)CC1
class.label: 0 (no)
//
molecule: COCCCNC(=S)NC(=O)c1ccc([N+](=O)[O-])cc1
class.label: 0 (no)
//
molecule: Cc1ccc(S(=O)(=O)N(Cc2cc3ccccc3[nH]c2=O)CC2CCCO2)cc1 (configuration not stated)
class.label: 0 (no)
//
molecule: O=C(Nc1ccc2ccccc2c1)Nc1ccc2snnc2c1
class.label: 0 (no)

----------
Experiment: counter-screen for M1 agonists: effect in parental CHO-K1 cells (AID 602248);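 further: untransfected CHO-K1 host cells lacking M1 receptor as counterscreen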
Settings: Fluo-8 calcium fluorescence, at 3 µM, active compounds read high, scaled to maximal ATP response, vehicle zero
The whole screen tested about 360,000 compounds, of which about 1,700 (0.47%) were called active. The list comes from a sample in which actives are over-represented; it also holds close analogues and randomly drawn compounds.
activation listing for selected compounds.

compound: C=C(C)CSc1nnc(-c2ccc(C)cc2)n1N
activation, %: 0.17
--
compound: Cc1cc(OCC(=O)NC2CCN(C)CC2)ccc1[N+](=O)[O-]
activation, %: 23.7
--
compound: CCc1nnc(NC(=O)CSc2nnnn2-c2cccc(C(C)=O)c2)s1
activation, %: -0.49
--
compound: COc1cccc(CNc2nc(NCc3ccccc3OC)nc3ccsc23)c1
activation, %: 8.82
--
compound: COc1ccccc1CNc1nc(Nc2ccccc2Cl)c2sccc2n1
activation, %: 7.11
--
compound: COc1cc(NC(=O)COC(=O)CSc2ccc3ccccc3c2)c(C)cc1[N+](=O)[O-]
activation, %: 5.21
--
compound: Nc1c(C(=O)c2cccs2)sc2nsc(SCCN3CCCCC3)c12
activation, %: 69.8
--
compound: COc1ccc(C(=O)OCC(=O)Nc2cccc(C(C)=O)c2)cc1OC
activation, %: 2.14
--
compound: CN1C(C)(C)CC(NC(=O)CCC(=O)NC2CC(C)(C)N(C)C(C)(C)C2)CC1(C)C
activation, %: 0.35
--
compound: C=CCSc1nsc(NC(=O)Nc2cccc(C(C)=O)c2)n1
activation, %: 15.8
--
compound: CCCCCCCCCCCCN1C(=O)CSC1c1cccnc1 (stereo unspecified)
activation, %: 1.63

----------
Assay: counter-screen for M1 agonists: effect in parental CHO-K1 cells (AID 602248);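 further: untransfected CHO-K1 host cells lacking M1 receptor as counterscreen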
Settings: Fluo-8 calcium fluorescence, at 3 µM, scaled to maximal ATP response, vehicle zero
Among all 360,000 compounds or so, about 1,700 (0.47%) were called active. No stated cut-off is given here; in the data, active means activation above about 15%; inactive means the rest. This excerpt belongs to a sample that is enriched for actives.
Possible outcomes: active, inactive

compound: COc1ccc(-n2ncc3c2CC(C)(C)CC3NC(=O)CCc2c(C)nn(C)c2C)cc1 (stereo not drawn)
class.label: inactive
--
compound: C=CCN1C2CCCC1CC(NC(=S)Nc1cccc(OC)c1)C2 (stereo not drawn)
class.label: inactive
--
compound: CN1CCN(C(=O)c2cnn(-c3ccccc3)c2NC(=O)c2ccc([N+](=O)[O-])cc2)CC1
class.label: inactive
--
compound: C=CC(=O)OCCOCCOCCOCCOC(=O)C=C
class.label: inactive
--
compound: COc1ccc(C(C)NC(=O)C23CC4CC(CC(C4)C2)C3)cc1 (stereo not drawn)
class.label: inactive
--
compound: CN(C)c1ccc(C(CNC(=O)c2ccc(F)cc2)c2c[nH]c3ccccc23)cc1 (stereo not drawn)
class.label: inactive
--
compound: Cc1ccc(NC(=O)COC(=O)CN2CCCCCC2=O)c(C)c1
class.label: inactive
--
compound: CCCCc1ccc(S(N)(=O)=O)cc1
class.label: inactive
--
compound: Cc1ccc(-c2cccc([C@H]3[C@@H]4C=CC[C@@H](C)[C@@H]4C(=O)N3Cc3ccccc3)c2)cc1
class.label: inactive
--
compound: CC(C)(c1ccccc1)c1ccc(OCCN)cc1
class.label: active
--
compound: CC(C)(c1ccccc1)c1ccc(OCCN2CCCC2)cc1
class.label: inactive
--
compound: Cc1nn(CCOc2ccccc2)c(=O)n1-c1ccccc1F
class.label: inactive
--
compound: CC(=O)Oc1ccc(-c2cccc(C(=O)N3CCCCC3)c2)cc1
class.label: inactive
--
compound: COc1ccc(OC)c(S(=O)(=O)Nc2ccccc2F)c1
class.label: inactive
--
compound: O=C(Nc1cc(S(=O)(=O)N2CCCCC2)ccc1Cl)C1COc2ccccc2O1 (stereo not drawn)
class.label: inactive
--
compound: CC(C)NC(=O)c1ccc(Sc2ccccc2)c([N+](=O)[O-])c1
class.label: inactive
--
compound: CC(NC(=O)c1cccc2ccccc12)c1ccc2c(c1)CCCC2 (stereo not drawn)
class.label: inactive
--
compound: O=C(CCCOc1ccccc1)Nc1cccc(C(=O)O)c1
class.label: inactive
--
compound: C=CCn1c(SCC(N)=O)nnc1-c1cc2c(s1)CCC(CC)C2 (stereo not drawn)
class.label: inactive
--
compound: CCCc1ccc(OCC(=O)NNC(=S)NC(=O)c2ccco2)cc1
class.label: inactive
--
compound: COc1cccc(C2c3[nH]c4ccccc4c3CCN2Cc2cccc(C)n2)c1 (stereo not drawn)
class.label: inactive
--
compound: CCOC(=O)c1c(C)oc(C)c(C(=O)OCC)c1=O
class.label: inactive
--
compound: Cn1c(N)cc(=O)n(C)c1=S
class.label: inactive

----------
Experiment: counter-screen for M1 agonists: effect in parental CHO-K1 cells (AID 602248);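 further: untransfected CHO-K1 host cells lacking M1 receptor as counterscreen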
Settings: Fluo-8 calcium fluorescence, at 3 µM, active compounds read high, scaled to maximal ATP response, vehicle zero
Screen size: about 360,000 compounds; about 1,700 (0.47%) were called active. What follows is part of a selection rich in actives, with near analogues and random picks from the rest.
Parameter threshold = 10%. Response is yes (1) when activation meets or exceeds it, else no (0).

compound: COc1ccc(C(=O)OCC(=O)c2ccc(C)c(S(=O)(=O)N3CCOCC3)c2)cc1OC
class.label: yes (1)

compound: COc1ccc(-c2ccc3c(c2)C2CC3CCN2CCC#N)cc1 (configuration not stated)
class.label: no (0)

compound: COc1ccc(CNC(=O)COC(=O)c2ccc(C)c(S(=O)(=O)N3CCOCC3)c2)cc1OC
class.label: no (0)

compound: CN(C(=O)CN(CCO)CC(=O)N(C)C(C)(C)Cc1ccccc1)C(C)(C)Cc1ccccc1
class.label: yes (1)

compound: CC(=O)c1ccc(NC(=O)C(C)NCc2ccc(Cl)cc2)cc1 (configuration not stated)
class.label: no (0)

compound: CC(C(=O)N1CCc2ccccc21)N(C)CC(=O)Nc1ccc(F)cc1 (configuration not stated)
class.label: no (0)

compound: COC(=O)c1ccc(CSc2ccc3nnc(-c4ccccc4)n3n2)o1
class.label: no (0)

compound: CCN(CC)CCCC(C)n1c2nc(=O)[nH]c(=O)c-2nc2cc(Cl)ccc21 (configuration not stated)
class.label: yes (1)

compound: CCOC(=O)C1(Cc2cccc(OC)c2)CCN(C(C)CC(C)(C)O)CC1 (configuration not stated)
class.label: yes (1)

compound: COc1ccc([C@H]2C[C@@H](n3cc(COC(=O)c4ccccc4)nn3)[C@H](O)CN2C(=O)c2cccs2)cc1
class.label: no (0)

compound: CCN(CC)c1ccc2oc(=O)c(C)nc2c1
class.label: yes (1)

compound: O=C(NCCCN1CCCC1=O)c1cccc(S(=O)(=O)NCc2ccccc2)c1
class.label: no (0)

compound: COc1ccc(CCNS(=O)(=O)c2ccc(Cl)s2)cc1OC
class.label: no (0)

compound: CC(=O)N1CCC(N(C(=O)Nc2ccc(Cl)cc2)C(C)C)CC1
class.label: no (0)

compound: COc1ccc(NC(=O)CSc2nncc(=O)n2N)cc1OC
class.label: no (0)

compound: CC(C)S(=O)(=O)c1csc(NC(=O)Nc2ccc(Cl)cc2)c1Cl
class.label: yes (1)

compound: Cc1ccc2oc(=O)ccc2c1
class.label: no (0)

compound: Cc1ccc2c(CN3CCN(S(=O)(=O)c4ccccc4C(F)(F)F)CC3)cc(=O)oc2c1
class.label: no (0)

compound: O=C(CSc1nncn1-c1cccnc1)N1CCOCC1
class.label: no (0)

compound: CCC(C)c1ccccc1N1CC(C(=O)N2CCN(S(=O)(=O)c3ccc(F)cc3)CC2)CC1=O (configuration not stated)
class.label: no (0)

compound: Cc1cc2oc(=O)cc(CN3CCN(S(=O)(=O)c4cccs4)CC3)c2cc1C(C)C
class.label: no (0)

compound: COc1ccc2c(CN3CCN(S(=O)(=O)c4cccs4)CC3)cc(=O)oc2c1
class.label: yes (1)
